# System: HAP1 MTAP-deleted cell line
# test.description: Viability assay, MTAP-deleted cell line
# Format: cell-based
# conditions.used: Homo sapiens, HAP1, viability assay, HAP1 MTAP-deleted; read-out: HAP1 MTAP deleted viability
recorded.endpoint: IC50

Completed entries (count: 5):
>  <compound>
Cc1cc(NC(=O)C(=O)N2C[C@@H](C)CC(F)(F)[C@@H]2c2ccc(F)cc2)cnc1N (racemic)

>  <IC50>
1 to 10 µM

$$$$
>  <compound>
C[C@H]1CC[C@H](c2ccc(-c3nccs3)cc2)N(C(=O)C(=O)Nc2cncc(C(N)=O)c2)C1 (single isomer, unassigned)

>  <IC50>
> 10 µM

$$$$
>  <compound>
Cc1cc(NC(=O)C(=O)N2C[C@H](C)CC[C@H]2c2cccc3[nH]ncc23)cnc1N (single isomer, unassigned)

>  <IC50>
< 1 µM

$$$$
>  <compound>
C[C@H]1CC[C@H](c2ccc(C(N)=O)s2)N(C(=O)C(=O)Nc2cncc(C(N)=O)c2)C1 (single isomer, unassigned)

>  <IC50>
> 10 µM

$$$$
>  <compound>
[H][C@]1([C@]2([H])C[C@]3(C[C@H](O)C3)C2)CC[C@H](C)CN1C(=O)C(=O)Nc1cnc(N)c(C)c1 (single isomer, unassigned)

>  <IC50>
> 10 µM

$$$$

Would you kindly look at the next entry?
Would you please give the reported IC50 of COc1ncc(NC(=O)C(=O)N2C[C@@H](C)CC[C@@H]2c2ccc3[nH]c(=O)ccc3c2)cc1C(N)=O (single isomer, unassigned) with HAP1 MTAP-deleted cell line?
< 1 µM

----------
# target.under.test: PRMT5 (Homo sapiens)
# Construct: purchased Viva (custom protein)
# test.description: PRMT5 biochemical IC50 assay with SAM as cofactor
# conditions.used: PRMT5, SAM as cofactor; read-out: SAM IC50
recorded.endpoint: IC50

Please state, for each entry, its recorded IC50.
1. CCc1cc(NC(=O)C(=O)N2C[C@@H](C)CC[C@@H]2c2ccc3sc([C@H]4CCN(C)C(C)(C)C4)nc3c2)cnc1N (single isomer, unassigned) [Compound 1397]
2. COc1cc([C@@H]2CC[C@@H](C)CN2C(=O)C(=O)Nc2cncc(C(N)=O)c2)ccn1 (single isomer, unassigned) [Compound 532]
3. C[C@@H]1CC[C@@H](c2ccc(Cn3cncn3)cc2)N(C(=O)C(=O)Nc2cncc(C(N)=O)c2)C1 (racemic) [Compound 252]
4. NC(=O)c1cncc(NC(=O)C(=O)N2CCC3(CCOCC3)CC2)c1 [Compound 191]
5. CCc1cc(NC(=O)C(=O)N2C[C@@H](C)CC[C@@H]2c2ccc(NC(C)=O)cc2)cnc1N (single isomer, unassigned) [Compound 890]

50 to 500 nM
50 to 500 nM
50 to 500 nM
> 500 nM
50 to 500 nM

Please state, for each entry, its recorded IC50.
1. Cc1cc(NC(=O)C(=O)N2C[C@H](C)CC[C@H]2c2ccc3[nH]ncc3c2)cnc1C (single isomer, unassigned) [Compound 631]
2. Cc1cc(NC(=O)C(=O)N2C[C@H](C)CC[C@H]2C2CCCC2)cnc1N (racemic) [Compound 190]
3. Cc1cc(NC(=O)C(=O)N2CCCC[C@H]2C(C)C)cnc1N (single isomer, unassigned) [Compound 192]
4. CCc1cc(NC(=O)C(=O)N2C[C@@H](C)CC[C@@H]2c2ccc3sc([C@H]4CCN(C)C(C)(C)C4)nc3c2)cnc1N [Compound 1125]

1. > 500 nM
2. 50 to 500 nM
3. 50 to 500 nM
4. < 50 nM

----------
For each record, write down the corresponding IC50.
# Test system: HAP1 MTAP-deleted cell line
# test.description: SDMA in-cell western assay, HAP1 MTAP-deleted
# Format: cell-based
# conditions.used: Homo sapiens, HAP1, SDMA in-cell western, HAP1 MTAP-deleted; read-out: HAP 1 MTAP deleted IC50

>  <compound>
COc1ncc(NC(=O)C(=O)N2C[C@H](C)CC[C@H]2c2cc3[nH]ncc3s2)cc1C(N)=O (single isomer, unassigned)

>  <IC50>
> 1000 nM

$$$$
>  <compound>
Cc1cc(NC(=O)C(=O)N2C[C@@H](C)CC[C@@H]2c2ccc3sc(C4CCN(C5COC5)CC4)nc3c2)cnc1N

>  <IC50>
< 100 nM

$$$$
>  <compound>
C[C@@H]1CC[C@@H](c2ccc(F)c(O)c2)N(C(=O)C(=O)Nc2cncc(C(N)=O)c2)C1 (racemic)

>  <IC50>
< 100 nM

$$$$
>  <compound>
COc1cccc([C@@H]2CC[C@@H](C)CN2C(=O)C(=O)Nc2cncc(C)c2)c1 (racemic)

>  <IC50>
> 1000 nM

$$$$
>  <compound>
CCc1cc(NC(=O)C(=O)N2C[C@H](C)CC[C@H]2c2cc(Cl)cc(Cl)c2)cnc1N (single isomer, unassigned)

>  <IC50>
> 1000 nM

$$$$

Quickly give me recorded IC50 for COc1ncc(NC(=O)C(=O)N2C[C@@H](C)CC[C@@H]2c2ccc3sc(CCN4CCCC4)nc3c2)cc1C(N)=O
< 100 nM

----------
# target.under.test: PRMT5 (Homo sapiens)
# Construct: purchased Viva (custom protein)
# test.description: PRMT5 biochemical IC50 assay with SAM as cofactor
# conditions.used: PRMT5, SAM as cofactor; read-out: SAM IC50
pIC50: −log10 of the molar value.
recorded.endpoint: pIC50

>  <compound>
Cc1cc(NC(=O)C(=O)N2C[C@@H](C)CC[C@@H]2c2ccc(N)cc2)cnc1N (single isomer, unassigned) [Compound 1081]

>  <pIC50>
< 6.30

$$$$
>  <compound>
C[C@@H]1CC[C@@H](c2ccc(C(N)=O)s2)N(C(=O)C(=O)Nc2cncc(C(N)=O)c2)C1 (single isomer, unassigned) [Compound 792]

>  <pIC50>
6.30 to 7.30

$$$$

Would you kindly look at the next entry?
Would you please give the reported pIC50 of Cc1cc(NC(=O)C(=O)N2C[C@H](C)CC[C@H]2c2cc(Cl)cc(C(F)(F)F)c2)cnc1N (single isomer, unassigned) [Compound 679] with PRMT5 (Homo sapiens)?
< 6.30

----------
For each record, write down the corresponding pIC50.
# target.under.test: PRMT5 (Homo sapiens, UniProt O14744)
# Construct: purchased Viva (custom protein)
# Sequence (O14744 whole entry): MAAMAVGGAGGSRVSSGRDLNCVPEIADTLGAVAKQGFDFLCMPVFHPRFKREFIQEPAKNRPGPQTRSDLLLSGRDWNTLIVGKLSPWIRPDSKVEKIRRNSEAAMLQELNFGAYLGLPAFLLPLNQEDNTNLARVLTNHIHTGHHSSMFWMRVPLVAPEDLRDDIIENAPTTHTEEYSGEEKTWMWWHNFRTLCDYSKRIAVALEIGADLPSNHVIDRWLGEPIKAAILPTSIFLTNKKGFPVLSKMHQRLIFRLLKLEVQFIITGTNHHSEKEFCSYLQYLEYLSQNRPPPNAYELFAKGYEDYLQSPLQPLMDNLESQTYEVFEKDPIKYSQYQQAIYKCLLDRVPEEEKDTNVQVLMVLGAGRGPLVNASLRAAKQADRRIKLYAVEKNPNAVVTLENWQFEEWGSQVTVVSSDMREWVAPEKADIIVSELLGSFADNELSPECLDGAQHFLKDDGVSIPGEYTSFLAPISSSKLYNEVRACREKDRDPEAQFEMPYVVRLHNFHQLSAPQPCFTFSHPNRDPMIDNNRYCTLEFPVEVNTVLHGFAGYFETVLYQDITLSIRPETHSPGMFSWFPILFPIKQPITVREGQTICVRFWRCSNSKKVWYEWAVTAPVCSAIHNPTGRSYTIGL
# Sequence (Q9BQA1 whole entry partner): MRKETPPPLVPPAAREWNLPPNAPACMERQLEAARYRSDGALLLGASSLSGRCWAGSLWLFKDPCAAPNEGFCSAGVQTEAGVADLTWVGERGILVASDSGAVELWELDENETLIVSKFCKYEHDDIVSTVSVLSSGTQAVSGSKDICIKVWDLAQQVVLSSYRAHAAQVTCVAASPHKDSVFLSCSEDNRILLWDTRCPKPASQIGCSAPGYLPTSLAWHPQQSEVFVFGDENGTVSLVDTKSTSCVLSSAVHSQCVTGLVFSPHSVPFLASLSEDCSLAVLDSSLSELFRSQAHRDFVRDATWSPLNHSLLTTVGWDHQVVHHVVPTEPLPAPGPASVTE
# test.description: PRMT5 biochemical IC50 assay with no cofactor
# conditions.used: PRMT5, no cofactor; read-out: No Cofactor/rel IC50
pIC50: −log10 of the molar value.

Completed entries (count: 3):
>  <molecule>
[H][C@]1([C@]2([H])C[C@@]3(C[C@H](O)C3)C2)CC[C@H](C)CN1C(=O)C(=O)Nc1cnc(N)c(C)c1 (single isomer, unassigned) [Compound 768]

>  <value.reported>
6.30 to 7.30

$$$$
>  <molecule>
Cc1cc(NC(=O)C(=O)N2C[C@@H](C)C(F)(F)C[C@@H]2c2ccccc2)cnc1N (single isomer, unassigned) [Compound 713]

>  <value.reported>
< 6.30

$$$$
>  <molecule>
COc1ncc(NC(=O)C(=O)N2C[C@H](C)CC[C@@H]2c2ccccc2)cc1C(N)=O (single isomer, unassigned) [Compound 308]

>  <value.reported>
< 6.30

$$$$

Would you kindly look at the next entry?
Quickly give me recorded pIC50 for Cc1cc(NC(=O)C(=O)N2C[C@H](C)CC[C@H]2c2ccn(-c3ccn[nH]3)n2)cnc1N (racemic) [Compound 715]
6.30 to 7.30

----------
# target.under.test: PRMT5 (Homo sapiens)
# Construct: purchased Viva (custom protein)
# test.description: PRMT5 biochemical IC50 assay with SAM as cofactor
# conditions.used: PRMT5, SAM as cofactor; read-out: SAM IC50
For each record, write down the corresponding IC50.

Completed entries (count: 2):
>  <compound>
C[C@@H]1CC[C@@H](c2ccc(Cl)c(F)c2)N(C(=O)C(=O)Nc2cncc(C(N)=O)c2)C1 (racemic)

>  <value.reported>
50 to 500 nM

$$$$
>  <compound>
Cc1ncc(NC(=O)C(=O)N2C[C@@H](C)CC[C@@H]2c2ccc3c(c2)CCC(=O)N3)cc1Cl (single isomer, unassigned)

>  <value.reported>
> 500 nM

$$$$

Would you kindly look at the next entry?
Quickly give me recorded IC50 for CC(=O)NCc1ccc([C@@H]2CC[C@@H](C)CN2C(=O)C(=O)Nc2cnc(N)c(C)c2)cc1 (racemic)
50 to 500 nM

----------
For each record, write down the corresponding pIC50.
# target.under.test: PRMT5 (Homo sapiens, UniProt O14744)
# Construct: purchased Viva (custom protein)
# test.description: PRMT5 biochemical IC50 assay with no cofactor
# conditions.used: PRMT5, no cofactor; read-out: No Cofactor/rel IC50
pIC50: −log10 of the molar value.

Completed entries (count: 8):
>  <compound>
CCc1cc(NC(=O)C(=O)N2C[C@@H](C)CC[C@@H]2c2ccc3c(c2)OCCN3)cnc1N (racemic)

>  <recorded.endpoint>
pIC50

>  <value.reported>
6.30 to 7.30

$$$$
>  <compound>
COc1ncc(NC(=O)C(=O)N2C[C@H](C)CC[C@H]2c2cc(Cl)cc(Cl)c2)cc1C(N)=O (single isomer, unassigned)

>  <recorded.endpoint>
pIC50

>  <value.reported>
< 6.30

$$$$
>  <compound>
CC(=O)Nc1ccc([C@@H]2CC[C@@H](C)CN2C(=O)C(=O)Nc2cnc(N)c(C)c2)cc1 (single isomer, unassigned)

>  <recorded.endpoint>
pIC50

>  <value.reported>
> 7.30

$$$$
>  <compound>
CNc1ccc([C@@H]2CC[C@@H](C)CN2C(=O)C(=O)Nc2cncc(C(N)=O)c2)cn1 (single isomer, unassigned) [Compound 443]

>  <recorded.endpoint>
pIC50

>  <value.reported>
> 7.30

$$$$
>  <compound>
C[C@@H]1CC[C@@H](c2cccc(Br)c2)N(C(=O)C(=O)Nc2cncc(C(N)=O)c2)C1 (racemic)

>  <recorded.endpoint>
pIC50

>  <value.reported>
6.30 to 7.30

$$$$
>  <compound>
CCc1cc(NC(=O)C(=O)N2C[C@@H](C)CC[C@@H]2c2ccc3nn(C4CC(C)(C)N(C)C(C)(C)C4)cc3c2)cnc1N (racemic)

>  <recorded.endpoint>
pIC50

>  <value.reported>
> 7.30

$$$$
>  <compound>
CCc1cc(NC(=O)C(=O)N2C[C@H](C)CC[C@H]2c2ccc(N3CCN(C)CC3)cc2)cnc1N (single isomer, unassigned)

>  <recorded.endpoint>
pIC50

>  <value.reported>
< 6.30

$$$$
>  <compound>
C[C@H]1CC[C@@H](c2ccc(O)nc2)N(C(=O)C(=O)Nc2cncc(C(N)=O)c2)C1 (single isomer, unassigned)

>  <recorded.endpoint>
pIC50

>  <value.reported>
< 6.30

$$$$

Please state, for each entry, its recorded pIC50.
1. Cc1cc(NC(=O)C(=O)N2C[C@@H](C)CC[C@@H]2c2cc(F)cc(F)c2)cnc1N (single isomer, unassigned)
2. CC(=O)N[C@H]1CCN(C(=O)C(=O)Nc2cnc(N)c(C)c2)[C@@H](c2ccccc2)C1 (racemic)
3. Cc1cc(NC(=O)C(=O)N2C[C@@H](C)CC[C@@H]2c2ccc(N)cc2)cnc1N (single isomer, unassigned)
4. Cc1cc(NC(=O)C(=O)N2C[C@@H](C)CC[C@@H]2c2cscn2)cnc1N (single isomer, unassigned)
5. Cc1ccc([C@@H]2CC[C@@H](C)CN2C(=O)C(=O)Nc2cncc(C(N)=O)c2)cn1 (single isomer, unassigned)
6. Cc1cc(NC(=O)C(=O)N2C[C@H](C)CC[C@H]2c2ccc(C(C)O)cc2)cnc1N (mixture of isomers)

1. > 7.30
2. < 6.30
3. < 6.30
4. 6.30 to 7.30
5. 6.30 to 7.30
6. 6.30 to 7.30

Please state, for each entry, its recorded pIC50.
1. Cc1cc(NC(=O)C(=O)N2C[C@H](C)C[C@H](F)[C@@H]2c2ccc(F)cc2)cnc1N (racemic)
2. CNc1ccc([C@@H]2CC[C@@H](C)CN2C(=O)C(=O)Nc2cnc(N)c(C)c2)cn1 (single isomer, unassigned)
3. Cc1cc(NC(=O)C(=O)N2C[C@@H](C)CC[C@@H]2c2ccc3cc[nH]c(=O)c3c2)cnc1N (single isomer, unassigned)
4. C[C@H]1CC[C@H](c2ccncc2)N(C(=O)C(=O)Nc2cncc(C(N)=O)c2)C1 (single isomer, unassigned)

["6.30 to 7.30", "> 7.30", "< 6.30", "6.30 to 7.30"]

Values compiled from patent US11999727B2.
